Would you kindly list pIC50 for each of these molecules?
# target under test: cap-dependent endonuclease (RNP fraction containing PB1•PB2•PA complex) (Influenza A virus, UniProt P15659)
# experimental protocol: biochemical
# measurement conditions: RNP from A/WSN/33 virus, capped Cy3/BHQ2 30mer RNA substrate, 60 minutes at room temperature; read-out: CEN IC50
The quantity pIC50 is defined as the negative base-10 logarithm of the molar concentration.

Reported pIC50, molecule C[C@H](N1CN([C@H]2c3ccccc3CSc3c(Cl)cccc32)n2ccc(=O)c(O)c2C1=O)C(F)(F)F : ____
6.55

Reported pIC50, molecule CC(C)(O)CN1CN(C2c3ccccc3CSc3ccccc32)n2ccc(=O)c(O)c2C1=O (stereo not shown) : ____
6.79

Reported pIC50, molecule CC(C)N1CN(C2c3ccccc3COc3cc(F)ccc32)n2ccc(=O)c(O)c2C1=O (stereo not shown) : ____
6.98

Reported pIC50, molecule CN1CN(C2c3ccccc3COc3ccccc32)n2ccc(=O)c(O)c2C1=O (stereo not shown) : ____
7.37

Reported pIC50, molecule O=C1c2c(O)c(=O)ccn2N(C2c3ccccc3CCc3ccccc32)CN1CC(F)F : ____
7.18

Reported pIC50, molecule CC(CN1CCCCC1)N1CN(C2c3ccccc3CCc3ccccc32)n2ccc(=O)c(O)c2C1=O (stereo not shown) : ____
6.85

Reported pIC50, molecule CC(C#N)N1CC(C2c3ccccc3CCc3ccccc32)n2ccc(=O)c(O)c2C1=O (stereo not shown) : ____
7.24

Reported pIC50, molecule CC(C)N1CN(C(c2cccs2)c2cccs2)n2ccc(=O)c(O)c2C1=O : ____
6.60

Reported pIC50, molecule COc1ccc2c(c1)CCc1ccccc1C2N1CN(C(C)C)C(=O)c2c(O)c(=O)ccn21 (stereo not shown) : ____
6.69

Reported pIC50, molecule CN1C(=O)c2c(O)c(=O)ccn2C(C(c2ccccc2)c2ccccc2)N1C (stereo not shown) : ____
6.77

Reported pIC50, molecule C[C@@H](N1CN([C@H]2c3ccc(Cl)cc3CSc3ccccc32)n2ccc(=O)c(O)c2C1=O)C(F)(F)F : ____
8.15

Reported pIC50, molecule Cc1ccc(C)c2c1SCc1ccccc1C2N1CN(C(C)C)C(=O)c2c(O)c(=O)ccn21 (stereo not shown) : ____
7.29

Reported pIC50, molecule CC(=O)N(C)CC1N(C(C)C)C(=O)c2c(O)c(=O)ccn2N1C1c2ccccc2CCc2ccccc21 (stereo not shown) : ____
6.85

Reported pIC50, molecule COCCCN1CN(C2c3ccccc3CSc3ccccc32)n2ccc(=O)c(O)c2C1=O (stereo not shown) : ____
7.40

Reported pIC50, molecule O=C(O)c1cn2c(c(O)c1=O)C(=O)N(CC(F)(F)F)C[C@@H]2C(c1ccccc1)c1ccccc1 : ____
6.88

Reported pIC50, molecule COCCN1CN(C2c3ccccc3OCc3c(F)cccc32)n2ccc(=O)c(O)c2C1=O (stereo not shown) : ____
7.13
